Where do these numbers come from? They come from ChEMBL document CHEMBL5154841.

assay: Bioavailability in CD-1 mouse at 30 mg/kg, ip measured after 24 hrs by LC-MS/MS analysis; format: ADME, organism-based; conditions: in vivo
Recorded bioavailability for the following molecules
Reply with just the number (in %).

chemical-structure: CC(C)(C)c1cccc(C#N)c1OCC(=O)Nc1ccc(O)cc1
unit-symbol: %
bioavailability: 24.2

For the next question, use this molecule.
Entry CC(C)(C)c1ccccc1OCC(=O)Nc1ccc(O)cc1 , bioavailability reported as 39.2

###

assay: Half life in CD-1 mouse at 1 mg/kg, iv measured after 24 hrs by LC-MS/MS analysis; assay type: ADME, organism-based; settings: in vivo
Recorded half-life for the following compounds
Reply with just the number (in min).

chemical-structure: CC(C)(C)c1ccccc1OCC(=O)Nc1ccc(O)cc1
unit-symbol: min
half-life: 17.4

For the next question, use this compound.
Entry CC(C)(C)c1cccc(C#N)c1OCC(=O)Nc1ccc(O)cc1 , half-life reported as 10.8
